// provenance: PubChem BioAssay

# test details: RPL19A-GFP modulators, yeast TOR pathway, confirmation, cell-based, S. cerevisiae, flow cytometry, cherry picks, mother/daughter gates (AID 2270)
# particulars: S. cerevisiae RPL19A-GFP strain, 3 h, measured here: daughter cell gate, at 10 µM, stronger effect = lower value, 100 = same GFP as DMSO wells
Reported GFP response vs DMSO by item:
Numeric only. Scale: %

// solved cases for GFP response vs DMSO follow
Cc1nn2c(N3CCCC3)cc(C(C)C)nc2c1-c1ccccc1	92.4
CCN(CC)CCCN(C(=O)c1ccc(Br)cc1)c1nc(-c2ccc(OC)cc2)cs1	97.3
COc1cccc(/C=C2\C(=O)N(c3cccc(C)c3)C(=O)c3ccccc32)c1	92

Recall and state the measured GFP response vs DMSO for Cc1ccsc1C(=O)N(Cc1nnc(-c2ccccc2Cl)o1)C1CC1 .
97.3

Recall and state the measured GFP response vs DMSO for CS(=O)(=O)N1N=C(c2ccc3nccnc3c2)CC1c1ccccc1 (stereo not given) .
102
